In this section, each of the compounds is paired with its reported GFP response vs DMSO.
# protocol.notes: RPL19A-GFP modulators, yeast TOR pathway, confirmation, cell-based, S. cerevisiae, flow cytometry, cherry picks, mother/daughter gates (AID 2270)
# setup.conditions: S. cerevisiae RPL19A-GFP strain, 3 h, measured here: daughter cell gate, at 10 µM, stronger effect = lower value, 100 = same GFP as DMSO wells
measured.property: GFP response vs DMSO (%)

compound=COc1ccc(CNC(=O)c2nc(S(=O)(=O)Cc3ccccc3)ncc2Cl)cc1 measured_property="GFP response vs DMSO" recorded_measurement=104
compound="CC(Oc1ccc(Br)cc1)C(=O)Nc1nc(-c2ccccn2)cs1 (stereo not given)" measured_property="GFP response vs DMSO" recorded_measurement=95.9
compound="COc1ccc(OC)c(C2CC(c3c(-c4ccccc4)c4cc(Cl)ccc4[nH]c3=O)=NN2S(C)(=O)=O)c1 (stereo not given)" measured_property="GFP response vs DMSO" recorded_measurement=99
compound=Nc1cc(N)nc(SCC(=O)N2CCc3ccccc32)n1 measured_property="GFP response vs DMSO" recorded_measurement=101
compound=COc1ccccc1-c1nnc(NC(=O)c2ccc(S(=O)(=O)N3CCCC3)cc2)o1 measured_property="GFP response vs DMSO" recorded_measurement=101
compound=Cc1ccc(C)c(N2CCN(C(=O)c3ccccc3Br)CC2)c1 measured_property="GFP response vs DMSO" recorded_measurement=102
compound="CCOC(=O)C1CCCN(c2nc3c(C)cccn3c(=O)c2/C=C(\\C#N)C(=O)NCc2ccco2)C1 (stereo not given)" measured_property="GFP response vs DMSO" recorded_measurement=101
compound=Cc1ccc(N2C3=C(C(=O)CC(C)(C)C3)C(c3cn(C)nc3C)C3=C2CC(C)(C)CC3=O)cc1 measured_property="GFP response vs DMSO" recorded_measurement=102
compound="Cc1ccccc1N1C(=O)CC(Sc2nnc(-c3ccccc3)o2)C1=O (stereo not given)" measured_property="GFP response vs DMSO" recorded_measurement=92.2
compound="COc1ccc(NC(=O)C2C3C=CC(C3)C2C(=O)NCc2ccco2)c(OC)c1 (stereo not given)" measured_property="GFP response vs DMSO" recorded_measurement=94.4

* * *

# protocol.notes: yeast V-ATPase proton transport modulators, S. cerevisiae, pHLuorin, HTS validation (AID 504600);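 also: plate controls were DMSO for no effect and reference compound for full effect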
# setup.conditions: S. cerevisiae pHLuorin cytosolic pH, at 10 µM, stronger effect = higher value
measured.property: response (%)

molecule=O=c1c2ccccc2nnn1Cc1cccc2ccccc12 measured_property=response recorded_measurement=3.28
molecule=COc1ccc2cc(-c3nc4ccccc4n3C)c(=O)oc2c1 measured_property=response recorded_measurement=-29.1
molecule=CCn1cc(C(=O)O)c(=O)c2cc(F)c(N3CCNCC3)cc21 measured_property=response recorded_measurement=7.15
molecule="CC1(C)NC(C(=O)O)Cc2c1[nH]c1ccccc21 (stereo unspecified)" measured_property=response recorded_measurement=-1.17
molecule=Cc1ccccc1-c1coc2cc(O)ccc2c1=O measured_property=response recorded_measurement=0.4
molecule=C[C@]12CCC(=O)C=C1CC[C@@H]1[C@@H]2CC[C@@]2(C)[C@H]1CC[C@]2(O)C(=O)CO measured_property=response recorded_measurement=1.37

* * *

In this section, each of the molecules is paired with its reported GFP response, % of DMSO.
# protocol.notes: modulators of CIT2-GFP expression in yeast, confirmation, S. cerevisiae, GFP fusion, cherry picks, mother/daughter gates (AID 2274)
# setup.conditions: S. cerevisiae CIT2-GFP strain, flow cytometry, 3 h; measured here: mother cell gate; at 10 µM; stronger effect = higher value
measured.property: GFP response, % of DMSO (%)

smiles_input=c1cnc2c(SCc3ccc(-c4nnco4)cc3)cccc2c1 recorded_measurement=96
smiles_input=CCOC(=O)C(=CNNc1cccc(Cl)c1)C(=O)OCC recorded_measurement=104
smiles_input=COC(=O)Nc1c(-c2ccccc2)nc2ccccn12 recorded_measurement=101
smiles_input=Cc1cc(C)c(S(C)(=O)=O)c(S(=O)(=O)c2ccc(Cl)cc2)n1 recorded_measurement=101
smiles_input=CCCc1ccc(C(=O)N2CCN(c3ccccc3OCC)CC2)cc1 recorded_measurement=94.5
smiles_input=Cc1ccccc1N1C(=O)C(Cl)=C(N2CCN(c3ccccc3)CC2)C1=O recorded_measurement=94.4

Cited source: PubChem BioAssay
